# test_name: GHS categories as the set defines them, by LD50: 1 up to 5, 2 up to 50, 3 up to 300, 4 up to 2000, 5 above 2000 mg/kg
# applied_conditions: rat; in vivo; po
# Excerpt: […]The data set underlying the modeling effort for this project was initially compiled by NICEATM and U.S. EPA’s CCTE. Briefly, LD50 data were collected from rat acute oral systemic toxicity tests, including limit tests, ranges/confidence intervals, and discrete LD50 values. The full data set included 21,200 LD50 entries for 15,688 substances. […]
Recorded measurements of GHS category, one per entry
Give only the figure.

For orientation, consider the following solved cases.
CC(C)=CCC[C@@](C)(O)[C@H]1CC=C(C)CC1: 5
CC/C=C\CC(C)OC(=O)c1ccccc1O (configuration not stated): 5
CSC(=O)c1cccc2nnsc12: 5

Fill blank: measured GHS category of the compound COC12C[C@@H](CO)CN(C)[C@@H]1Cc1cn(C(C)(C)C)c3cccc2c13 (some centres not stated) is ____. 4

Fill blank: measured GHS category of the compound "COc1c2ccoc2cc2oc(=O)ccc12" is ____. 5

Fill blank: measured GHS category of the compound "O=C1c2ccccc2C(=O)c2c(O)ccc(O)c21" is ____. 5

Fill blank: measured GHS category of the compound "O=C(COCCOCCOCC(=O)Nc1c(I)cc(I)c(C(=O)O)c1I)Nc1c(I)cc(I)c(C(=O)O)c1I" is ____. 5

Fill blank: measured GHS category of the compound "CCCCCCCC[N+](C)(C)[O-]" is ____. 5

Fill blank: measured GHS category of the compound "O=C(CCS)OCC(COC(=O)CCS)(COC(=O)CCS)COC(=O)CCS" is ____. 4

Fill blank: measured GHS category of the compound COP(=O)(NC(=O)C(Cl)Cl)SC (configuration not stated) is ____. 4

Fill blank: measured GHS category of the compound CC1CC(C)(C)OC(Cn2cncn2)(c2cc3ccccc3o2)O1 (configuration not stated) is ____. 4

Fill blank: measured GHS category of the compound O=C(O)C(c1ccccc1Cl)N1CCc2sccc2C1 (configuration not stated) is ____. 5

* * *

# test_name: GHS categories as the set defines them, by LD50: 1 up to 5, 2 up to 50, 3 up to 300, 4 up to 2000, 5 above 2000 mg/kg
# applied_conditions: rat; in vivo; po
Recorded measurements of GHS category, one per entry
Give only the figure.

C=CC(C)(CCC=C(C)C)OC(=O)Cc1ccccc1 (configuration not stated): 5

Fill blank: measured GHS category of the molecule "CNc1ccc(C(C)=O)cc1O" is ____. 5

Fill blank: measured GHS category of the molecule "CC(=O)OCC(=O)[C@@]12OC3(CCCC3)O[C@@H]1C[C@H]1[C@@H]3CCC4=CC(=O)C=C[C@]4(C)[C@@]3(F)[C@@H](O)C[C@@]12C" is ____. 5

Fill blank: measured GHS category of the molecule "N#CNC(=N)NCCCCCCNC(=N)NC#N" is ____. 5

Fill blank: measured GHS category of the molecule "O=C1OCC[C@@H]1O" is ____. 5

Fill blank: measured GHS category of the molecule "CCCCCCNC(=O)c1cnc2cccc(C)n2c1=O" is ____. 3

Fill blank: measured GHS category of the molecule "CCCCCCCCCC(=O)N(C)C" is ____. 5

Fill blank: measured GHS category of the molecule CCC1COC(Cn2cncn2)(c2cc3cc(Cl)ccc3o2)O1 (configuration not stated) is ____. 4

Fill blank: measured GHS category of the molecule "CCCC(=O)OCC(C)C" is ____. 5
